Assign pKi to each entry below.
biological target: CATPO T188D variant (Scytalidium thermophilum (Humicola insolens), UniProt M4GGR5, T207D); assay: biochemical
Sequence (M4GGR5 entry or part of it T207D): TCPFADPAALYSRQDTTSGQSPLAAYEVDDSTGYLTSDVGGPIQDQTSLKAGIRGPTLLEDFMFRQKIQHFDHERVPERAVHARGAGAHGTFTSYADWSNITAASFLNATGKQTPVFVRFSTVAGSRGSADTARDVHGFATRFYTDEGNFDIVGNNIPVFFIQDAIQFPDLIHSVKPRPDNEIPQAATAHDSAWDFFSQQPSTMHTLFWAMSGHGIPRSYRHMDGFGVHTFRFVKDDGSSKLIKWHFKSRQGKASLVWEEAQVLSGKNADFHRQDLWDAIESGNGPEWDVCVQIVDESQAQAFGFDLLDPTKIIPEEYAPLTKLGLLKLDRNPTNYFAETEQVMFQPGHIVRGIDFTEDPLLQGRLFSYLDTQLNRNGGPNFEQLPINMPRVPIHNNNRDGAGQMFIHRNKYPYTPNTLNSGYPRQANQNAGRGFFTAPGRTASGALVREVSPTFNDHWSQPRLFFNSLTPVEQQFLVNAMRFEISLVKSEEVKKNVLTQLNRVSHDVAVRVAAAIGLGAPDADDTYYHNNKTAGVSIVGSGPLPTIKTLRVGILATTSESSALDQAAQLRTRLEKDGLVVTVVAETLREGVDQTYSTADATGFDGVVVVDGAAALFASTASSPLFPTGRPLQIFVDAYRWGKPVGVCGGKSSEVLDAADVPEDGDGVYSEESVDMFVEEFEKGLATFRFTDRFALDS
# pKi is unitless: minus log10 of the molar concentration; print number only

What measured pKi goes with `CC(C)(C)c1ccc(O)c(O)c1` ? 1.31

For `Oc1cccc(O)c1O` , what is its reported pKi? 1.26

Entry under review: `Cc1ccc(O)c(O)c1` . Reported pKi? 1.30

Please give the measured pKi for this compound: Oc1ccc(O)cc1 [Hydroquinone, p-hydroquinone] 1.18

Which pKi value belongs to O=C(NO)c1ccccc1O [Salicylhydroxamic acid, salicylhydroxamic acid] ? 2.27

Give the measured pKi of `Nc1nc[nH]n1` . 1.39

====

Give measured V max for each item. Keep answers brief.
molecular target: CATPO E484I variant (Scytalidium thermophilum (Humicola insolens), UniProt M4GGR5, E503I); assay type: biochemical
Sequence (M4GGR5 entry or part of it E503I): as the sequence (M4GGR5 entry or part of it T207D) above
The reply should be a number in mM/min, with the unit left off.

Need V max, item CC(C)(C)c1ccc(O)c(O)c1 [1,4-tert-Butylcatechol, 4-tert-butylcatechol] 28600

Would you kindly share the measured V max for Oc1cccc(O)c1O [Pyrogallol, pyrogallol] ? 20300

Please report the recorded V max for Cc1ccc(O)c(O)c1 [4-Methylcatechol, 4-methylcatechol] . 41500

Please give the measured V max for this compound: CCn1c(=NN=c2sc3cc(S(=O)(=O)O)ccc3n2CC)sc2cc(S(=O)(=O)O)ccc21 [ABTS] 4600

What V max value was documented for this compound, Oc1ccccc1O [Catechol, catechol] ? 50000

Quick one: V max for Oc1ccc(O)cc1 [Hydroquinone, p-hydroquinone] ? 10000

====

target: CATPO T188D variant (Scytalidium thermophilum (Humicola insolens), UniProt M4GGR5, T207D); format: biochemical
Observable: V max (mM/min)
Form entry: value (mM/min) — number only.

V max lookup needed for `Oc1cccc(O)c1O` , thanks. 15000

What value of V max has been reported for the following compound? `Oc1ccccc1O` 40000

Reported V max for `CC(C)(C)c1ccc(O)c(O)c1` : what is it? 18000

Record request: V max value, item Oc1ccc(O)cc1 [Hydroquinone, p-hydroquinone] 9600

Which V max value is on record for `Cc1ccc(O)c(O)c1` ? 28000

Suppose we examine the compound `CCn1c(=NN=c2sc3cc(S(=O)(=O)O)ccc3n2CC)sc2cc(S(=O)(=O)O)ccc21` ; what V max value has been reported? 4000

====

I'd appreciate it if you could supply k cat/K m values for the items below.
target: UniProt M4GGR5; experiment: Substrate-specificity analysis of the phenol oxidase activity; format: biochemical
Marks after values point to notes of the source that are not given here.

Would you kindly share the measured k cat/K m for Oc1ccc(O)cc1 [Hydroquinone, p-hydroquinone] ? 750 ± 50 s^−1 M^−1 (×10^2)

Which k cat/K m value belongs to `Cc1ccc(O)c(O)c1` ? 1580 ± 110 s^−1 M^−1 (×10^2)

k cat/K m for `CCn1c(=NN=c2sc3cc(S(=O)(=O)O)ccc3n2CC)sc2cc(S(=O)(=O)O)ccc21` ? 590 ± 20 s^−1 M^−1 (×10^2)

Can you share its k cat/K m? I mean this molecule: `CC(C)(C)c1ccc(O)c(O)c1` 1240 ± 90 s^−1 M^−1 (×10^2)

Entry `Oc1ccccc1O` has what k cat/K m? 2200 ± 130 s^−1 M^−1 (×10^2)

k cat/K m lookup needed for `Oc1cccc(O)c1O` , thanks. 960 ± 65 s^−1 M^−1 (×10^2)
